Origin of the recorded values: patent US20160075790A1

Target: T1, human CD40L, membrane-bound on cells (human, UniProt P29965 1-261)
T1 sequence: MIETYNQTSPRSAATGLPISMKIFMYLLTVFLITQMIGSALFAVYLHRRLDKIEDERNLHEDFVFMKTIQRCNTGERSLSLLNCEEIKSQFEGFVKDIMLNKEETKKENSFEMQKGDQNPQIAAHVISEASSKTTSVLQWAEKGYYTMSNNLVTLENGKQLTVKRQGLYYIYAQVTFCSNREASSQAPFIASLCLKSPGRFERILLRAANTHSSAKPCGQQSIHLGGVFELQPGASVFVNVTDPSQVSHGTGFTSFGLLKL
Test: cell-based or functional assay
readout-kind: T-B cell MLR IL-6 EC50 (nM)
Give bare numbers, in nM.

Sample records with T-B cell MLR IL-6 EC50:
binder="2h572-633 Fc (Fc fusion, not shown: a dimerising Fc or GST) EVQLLESGGGLVQPGGSLRLSCAASGFTFNWELMGWARQAPGKGLEWVSGIEGPGDVTYYADSVKGRFTISRDNSKNTLYLQMNSLRAEDTAVYYCVKVGKDAKSDYRGQGTLVTVSS" endpoint_result=0.11
binder="2h572-633-CT-Fc SP5 (Fc fusion, not shown: a dimerising Fc or GST) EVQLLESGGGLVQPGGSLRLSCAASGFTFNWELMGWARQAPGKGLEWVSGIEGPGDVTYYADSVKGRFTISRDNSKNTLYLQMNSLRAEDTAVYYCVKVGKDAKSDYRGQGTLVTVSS" endpoint_result=0.13
binder="2h572-635 Fc (Fc fusion, not shown: a dimerising Fc or GST) EVQLLESGGGLVQPGGSLRLSCAASGFTFNWELMGWARQAPGKGLEWVSGIEGPGDVTYYADSVKGRFTISRDNSKNTLYLQMNSLRAEDTAVYYCVKVGKDSKSDYRGQGTLVTVSS" endpoint_result=0.11
binder="2h572-634 Fc (Fc fusion, not shown: a dimerising Fc or GST) EVQLLESGGGLVQPGGSLRLSCAASGFTFNWELMGWARQAPGKGLEWVSGIEGPGDVTYYADSVKGRFTISRDNSKNTLYLQMNSLRAEDTAVYYCVKVGKDSRSDYRGQGTLVTVSS" endpoint_result=0.19
binder="2h572-619-Ctshort Fc (Fc fusion, not shown: a dimerising Fc or GST) EVQLLESGGGLVQPGGSLRLSCAASGFTFNWQLMGWVRQAPGKGLEWVSGIEGPGDVTYYADSVKGRFTISRDNSKNTLYLQMNSLRAEDTAVYYCVKVGKDSRSDYRGQGTLVTVSS" endpoint_result=0.3

Now for a further binder.
Just so you know, measured T-B cell MLR IL-6 EC50 for 2h572-619-N297Qshort Fc (Fc fusion, not shown: a dimerising Fc or GST) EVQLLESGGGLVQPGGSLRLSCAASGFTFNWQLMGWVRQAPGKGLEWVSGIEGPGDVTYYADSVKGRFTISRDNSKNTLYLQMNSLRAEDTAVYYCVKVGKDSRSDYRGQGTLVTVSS came out at 0.1
